Listed next: entries and their corresponding koff.
TARGET_OF_ASSAY: T1, human CD33 (human, UniProt P20138 18-259, limits assumed)
T1 construct: Human CD33 immobilized on the BLI sensor tip or the BIAcore C1 chip; also called Siglec-3
ASSAY_DETAILS: SPR (BIAcore), Fab over CD33 on C1 chip
Value expressed in s⁻¹; do not type the unit.

Give its koff value. Item: AB-64.1 (antibody, V domains shown) VH: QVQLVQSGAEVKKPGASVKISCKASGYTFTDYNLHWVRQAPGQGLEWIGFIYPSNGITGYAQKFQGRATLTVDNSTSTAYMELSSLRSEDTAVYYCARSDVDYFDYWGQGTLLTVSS VL: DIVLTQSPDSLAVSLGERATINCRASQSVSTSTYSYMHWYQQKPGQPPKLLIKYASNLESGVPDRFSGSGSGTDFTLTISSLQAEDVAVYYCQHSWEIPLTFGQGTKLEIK
0.000485

For the binder shown here, AB-64.4 (antibody, V domains shown) VH: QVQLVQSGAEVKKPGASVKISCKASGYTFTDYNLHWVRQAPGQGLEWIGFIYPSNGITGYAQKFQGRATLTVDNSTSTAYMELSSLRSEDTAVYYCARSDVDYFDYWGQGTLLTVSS VL: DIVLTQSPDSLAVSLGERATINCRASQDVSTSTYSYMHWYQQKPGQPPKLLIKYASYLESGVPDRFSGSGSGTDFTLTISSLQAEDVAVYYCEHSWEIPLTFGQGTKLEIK , give the reported koff.
1.98e-05

Which koff value is on record for AB-64.3 (antibody, V domains shown) VH: QVQLVQSGAEVKKPGASVKISCKASGYTFTDYNLHWVRQAPGQGLEWIGFIYPSNGITGYAEKFEGRATLTVDNSTSTAYMELSSLRSEDTAVYYCARSFVDYFDYWGQGTLLTVSS VL: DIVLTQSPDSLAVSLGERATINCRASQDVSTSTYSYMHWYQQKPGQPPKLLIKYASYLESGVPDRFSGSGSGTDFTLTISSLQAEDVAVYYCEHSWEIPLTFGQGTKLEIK ?
2.67e-05

Return reported koff; argument: Chimeric Ab (antibody, V domains shown, Chimeric antibody with the variable regions of murine 2F5.1; also called parental antibody; comparator antibody) VH: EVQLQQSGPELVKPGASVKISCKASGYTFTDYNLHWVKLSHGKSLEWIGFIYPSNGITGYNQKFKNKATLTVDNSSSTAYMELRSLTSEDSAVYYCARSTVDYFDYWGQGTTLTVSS VL: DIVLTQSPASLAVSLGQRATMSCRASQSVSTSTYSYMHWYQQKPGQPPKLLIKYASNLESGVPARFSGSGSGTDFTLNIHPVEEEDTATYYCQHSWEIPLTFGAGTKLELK
0.00162

src = patent US20210139581A1
